- tested.on: HCV genotype 1b (BK) NS3 modified enzyme with a R155K mutation (Hepatitis C virus genotype 1b, UniProt P26663, R1181K)
- Construct: HCV genotype 1b (BK) NS3 modified enzyme
- test.summary: HCV NS3 protease time-resolved fluorescence (TRF) assay, genotype 1b R155K
- Format: biochemical
- assay.setup: Ki 1b R155K, genotype 1b (BK) NS3 R155K; single value
The threshold is 0.3 nM. Values of Ki beneath it are tagged fulfilled; values meeting or exceeding it are tagged not fulfilled.

Qu. Please determine if "COc1c2c(nc3ccccc13)O[C@@H]1C[C@@H](C(=O)N[C@]3(C(=O)NS(=O)(=O)C4CC4)C[C@H]3C3CC3)N(C1)C(=O)[C@H](C1CCCC1)NC(=O)O[C@@H]1CCC[C@H]1CC/C=C/C2" is below 0.3 nM in terms of Ki.
Ans. not fulfilled

Qu. Is Ki of "C=C[C@@H]1C[C@]1(NC(=O)[C@@H]1C[C@@H]2CN1C(=O)[C@H](C(C)(C)C)NC(=O)O[C@@H]1CCC[C@H]1CC/C=C/Cc1c(nc3ccccc3c1OCCN1CCCCC1)O2)C(=O)NS(=O)(=O)C1CC1" strictly below 0.3 nM?
Ans. fulfilled

Qu. Please check: Ki for "C=C[C@@H]1C[C@]1(NC(=O)[C@@H]1C[C@@H]2CN1C(=O)[C@H](C(C)(C)C)NC(=O)O[C@@H]1C[C@H]1CCCCCc1c(nc3c(F)cccc3c1OCCN1CCC1)O2)C(=O)NS(=O)(=O)C1(C)CC1" , strictly under 0.3 nM or not?
Ans. fulfilled

Qu. Criterion: Ki strictly below 0.3 nM. Is it met by "C=C[C@@H]1C[C@]1(NC(=O)[C@@H]1C[C@@H]2CN1C(=O)[C@H](C1CCCC1)NC(=O)O[C@@H]1CCC[C@H]1CC/C=C/Cc1c(nc3ccccc3c1OCCCOP(=O)(O)O)O2)C(=O)NS(=O)(=O)C1CC1" ?
Ans. fulfilled

Qu. Criterion: Ki strictly below 0.3 nM. Is it met by "C=C[C@@H]1C[C@]1(NC(=O)[C@@H]1C[C@@H]2CN1C(=O)[C@H](C(C)(C)C)NC(=O)O[C@]1(C)C[C@H]1CCCCCc1c(nc3ccccc3c1OCCN1CCOCC1)O2)C(=O)NS(=O)(=O)C1(COC)CC1" ?
Ans. fulfilled

Further cases:
Qu. Would you kindly verify if Ki of "C=C[C@@H]1C[C@]1(NC(=O)[C@@H]1C[C@@H]2CN1C(=O)[C@H](C1CCCC1)NC(=O)O[C@@H]1CCC[C@H]1CC/C=C/Cc1c(nc3ccccc3c1OCCCN1CCCC(F)(F)C1)O2)C(=O)NS(=O)(=O)C1(C)CC1" is strictly less than 0.3 nM?
Ans. not fulfilled

Qu. Strictly below 0.3 nM: is that where Ki of "C=C[C@@H]1C[C@]1(NC(=O)[C@@H]1C[C@@H]2CN1C(=O)[C@H](C1CCCC1)NC(=O)O[C@@H]1CCC[C@H]1CC/C=C/Cc1c(nc3ccc(Br)cc3c1O)O2)C(=O)NS(=O)(=O)C1CC1" sits?
Ans. not fulfilled

Qu. # TODO verify Ki < 0.3 nM strictly for this compound: "C=C[C@@H]1C[C@]1(NC(=O)[C@@H]1C[C@@H]2CN1C(=O)[C@H](C(C)(C)C)NC(=O)O[C@@H]1C[C@H]1CCCCCc1c(nc3ccccc3c1OCCN1CCC(C)(O)CC1)O2)C(=O)NS(=O)(=O)C1(C)CC1"
Ans. fulfilled

Qu. Please let me know if "C=C[C@@H]1C[C@]1(NC(=O)[C@@H]1C[C@@H]2CN1C(=O)[C@H](C1CCCC1)NC(=O)N1CC[C@@H](C1)OCCC/C=C/Cc1c(nc3ccccc3c1OCC)O2)C(=O)NS(=O)(=O)C1CC1" shows Ki below 0.3 nM.
Ans. not fulfilled

Qu. Is Ki of "CC1(S(=O)(=O)NC(=O)[C@@]23C[C@H]2/C=C\CCCCC[C@@H]2NC(=O)O[C@@H]4C[C@H]4CCC/C=C/c4c(nc5ccccc5c4OCCCN4CCCC4)O[C@@H]4C[C@@H](C(=O)N3)N(C4)C2=O)CC1" strictly below 0.3 nM?
Ans. fulfilled

Qu. Hello, I'm reviewing records and need to know if Ki of "C=C[C@@H]1C[C@]1(NC(=O)[C@@H]1C[C@@H]2CN1C(=O)[C@H](C1CCCC1)NC(=O)O[C@@H]1CCC[C@H]1CC/C=C/Cc1c(nc3ccccc3c1OP(=O)(OCC)OCC)O2)C(=O)NS(=O)(=O)C1CC1" is below 0.3 nM. Could you check?
Ans. not fulfilled

Qu. Please check: Ki for "C=C[C@@H]1C[C@]1(NC(=O)[C@@H]1C[C@@H]2CN1C(=O)[C@H](C1CCCC1)NC(=O)O[C@@H]1CCC[C@H]1CC/C=C/Cc1c(nc3ccccc3c1OCCN1CCCC1=O)O2)C(=O)NS(=O)(=O)C1CC1" , strictly under 0.3 nM or not?
Ans. fulfilled

Qu. # strict comparison: is reported Ki < 0.3 nM? input = "CCOc1c2c(nc3ccccc13)O[C@@H]1C[C@@H](C(=O)N[C@]3(C(=O)NS(=O)(=O)C4CC4)C[C@H]3CC)N(C1)C(=O)[C@H](C1CCCC1)NC(=O)O[C@@H]1CCC[C@H]1CCCCC2"
Ans. not fulfilled

Qu. Could you please tell me whether Ki recorded for "C=C[C@@H]1C[C@]1(NC(=O)[C@@H]1C[C@@H]2CN1C(=O)[C@H](C1CCCC1)NC(=O)O[C@@H]1CCC[C@H]1CC/C=C/Cc1c(nc3ccccc3c1OCC(=O)O)O2)C(=O)NS(=O)(=O)C1CC1" is less than 0.3 nM?
Ans. fulfilled

Qu. Record C=C[C@@H]1C[C@]1(NC(=O)[C@@H]1C[C@@H]2CN1C(=O)[C@H](C(C)(C)C)NC(=O)O[C@@H]1C[C@H]1CCCCCc1c(nc3ccccc3c1OCCCN(C)CC1CCC(=O)N1)O2)C(=O)NS(=O)(=O)C1(C)CC1 (some centres unmarked) : is its Ki strictly below 0.3 nM?
Ans. fulfilled

Qu. Decide: Ki of "C=C[C@@H]1C[C@]1(NC(=O)[C@@H]1C[C@@H]2CN1C(=O)[C@H](C(C)(C)C)NC(=O)O[C@@H]1CCC[C@H]1CC/C=C\Cc1c(nc3ccccc3c1OC)O2)C(=O)NS(=O)(=O)C1CC1" strictly below 0.3 nM?
Ans. not fulfilled

Qu. Does this compound meet the criterion Ki < 0.3 nM? "C=C[C@@H]1C[C@]1(NC(=O)[C@@H]1C[C@@H]2CN1C(=O)[C@H](C1CCCCC1)NC(=O)O[C@@H]1C[C@H]1CCCCCc1c(nc3ccccc3c1OCCCSc1nncn1C)O2)C(=O)NS(=O)(=O)C1(C)CC1"
Ans. fulfilled
